Tested on: swine coronary arteries
Assay: In vitro vasorelaxation in isolated swine coronary arteries (PGF2α-contracted rings)
Format: cell-based
Settings: Sus scrofa; 50% reduction in tension, 3 μM PGF2α; Table II; read-out: Vasorelaxation in Swine Coronary Artery/IC50
metric_name: EC50 (nM)

Look over these answered cases.
[[record]]
compound = "CO[C@@H]1[C@H](O)[C@@H](CO)O[C@H]1n1cnc2c(N[C@H](C)Cc3sccc3Cl)ncnc21 [Example 47]"
value = 5700

[[record]]
compound = "CCNC(=O)[C@H]1C[C@@H](n2cnc3c(NCCc4nccs4)ncnc32)[C@H](O)[C@@H]1O (relative stereo) [Example 25]"
value = 640

[[record]]
compound = "CCNC(=O)[C@H]1C[C@@H](n2cnc3c(N[C@H](C)Cc4ccc(Cl)s4)ncnc32)[C@@H]2OC(C)(C)O[C@@H]21 [6(1)]"
value = 19100


(1) CCNC(=O)[C@H]1C[C@@H](n2cnc3c(NCCNc4nc5ccccc5s4)ncnc32)[C@H](O)[C@@H]1O (relative stereo) [Example 29]
(2) CCNC(=O)[C@H]1C[C@@H](n2cnc3c(N[C@H](C)Cc4cccs4)ncnc32)[C@H](O)[C@@H]1O (single isomer, unassigned) [Example 27]
(3) CCNC(=O)[C@H]1C[C@@H](n2cnc3c(N[C@H](C)Cc4ccc(Cl)s4)ncnc32)[C@H](O)[C@@H]1O [Example 6]
(4) OC[C@H]1O[C@@H](n2cnc3c(N[C@@H]4CC=CC[C@H]4c4cccs4)ncnc32)[C@H](O)[C@@H]1O (relative stereo) [Example 4]
(5) CCNC(=O)[C@H]1C[C@@H](n2cnc3c(N[C@H](C)Cc4ccc(Cl)s4)ncnc32)[C@@H]2OC(=O)O[C@@H]21 [Example 44]
Order each entry by recorded EC50, climbing from the minimum. Note for the reader: the ranking is given by listing the labels in the order requested.
3, 2, 5, 4, 1

(a) OC[C@H]1O[C@@H](n2cnc3c(N[C@@H]4CCCC[C@H]4c4cccs4)ncnc32)[C@H](O)[C@@H]1O (relative stereo) [Example 7]
(b) CCNC(=O)[C@H]1C[C@@H](n2cnc3c(N[C@H](C)Cc4cccs4)ccnc32)[C@H](O)[C@@H]1O [Example 40]
(c) OC[C@H]1O[C@@H](n2cnc3c(NCc4nc(-c5ccccc5)cs4)ncnc32)[C@H](O)[C@@H]1O [Example 19]
Order these by EC50, descending, and give the full ranking. Note for the reader: the ranking is given by listing the labels in the order requested.
a, c, b

(I) Cc1ncsc1CCNc1ncnc2c1ncn2[C@@H]1O[C@H](CO)[C@@H](O)[C@H]1O [Example 12]
(II) CC(C)(Cc1cccs1)Nc1ncnc2c1ncn2[C@@H]1O[C@H](CO)[C@@H](O)[C@H]1O [Example 17]
(III) CCNC(=O)[C@H]1C[C@@H](n2cnc3c(NCCc4cccs4)ncnc32)[C@H](O)[C@@H]1O [Example 26]
Order these by EC50, descending, and give the full ranking. Note for the reader: the ranking is given by listing the labels in the order requested.
II, I, III
(II: 18800 nM, I: 500 nM, III: 82 nM)

###

Molecular target: A2 adenosine receptor (Rattus norvegicus, UniProt P30543)
Sequence (P30543 whole entry): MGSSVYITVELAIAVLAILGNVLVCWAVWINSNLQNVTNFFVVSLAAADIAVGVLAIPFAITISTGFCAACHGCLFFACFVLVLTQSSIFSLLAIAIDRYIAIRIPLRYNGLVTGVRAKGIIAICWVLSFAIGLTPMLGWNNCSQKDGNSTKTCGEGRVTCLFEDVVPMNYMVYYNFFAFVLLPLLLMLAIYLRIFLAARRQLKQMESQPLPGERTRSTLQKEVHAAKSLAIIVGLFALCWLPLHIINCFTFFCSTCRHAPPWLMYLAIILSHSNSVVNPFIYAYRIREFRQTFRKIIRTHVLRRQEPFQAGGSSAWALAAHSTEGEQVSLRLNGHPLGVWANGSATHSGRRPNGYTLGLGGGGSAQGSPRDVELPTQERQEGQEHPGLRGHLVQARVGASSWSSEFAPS
Assay: biochemical
Settings: rat brain striatum membranes, 3H-CGS 21680; Table II; read-out: Adenosine Receptor Binding Activity/IC50 (nM) A2
metric_name: IC50 (nM)

[[record]]
molecule = "Cc1csc(CNc2ncnc3c2ncn3[C@@H]2O[C@H](CO)[C@@H](O)[C@H]2O)n1"
result_unit = "nM"
value = 52


(I) OC[C@H]1O[C@@H](n2cnc3c(NCCc4nccs4)ncnc32)[C@H](O)[C@@H]1O [Example 13, N^6-[2-(2'-thiazolyl)ethyl]-adenosine]
(II) CCNC(=O)[C@H]1O[C@@H](n2cnc3c(NCCNc4nc5ccccc5s4)ncnc32)[C@H](O)[C@@H]1O
Thinking about recorded IC50 values, which is higher, I or II ? Identify your pick by its label.
II
(II: 891 nM, I: 191 nM)

(I) CCNC(=O)[C@H]1C[C@@H](n2cnc3c(N[C@H](C)Cc4ccc(Cl)s4)ncnc32)[C@@H]2OC(=O)O[C@@H]21
(II) Cc1ncsc1CCNc1ncnc2c1ncn2[C@@H]1O[C@H](CO)[C@@H](O)[C@H]1O
Thinking about recorded IC50 values, which is higher, I or II ? Identify your pick by its label.
I
(I: 331 nM, II: 224 nM)

(a) OC[C@H]1O[C@@H](n2cnc3c(NCCNc4nc5ccccc5s4)ncnc32)[C@H](O)[C@@H]1O
(b) CC(C)(Cc1cccs1)Nc1ncnc2c1ncn2[C@@H]1O[C@H](CO)[C@@H](O)[C@H]1O
(c) CCNC(=O)[C@H]1C[C@@H](n2cnc3c(NCCc4cccs4)ncnc32)[C@H](O)[C@@H]1O
Order each entry by recorded IC50, climbing from the minimum. Note for the reader: the ranking is given by listing the labels in the order requested.
c, a, b
